System: NCI-H460
Experiment: Cytotoxicity in human NCI-H460 cells assessed as reduction in cell viability incubated for 72 hrs by MTT assay
Type: functional, cell-based
Details: NCI-H460, 72 h
pIC50: −log10 of the molar value.

{"substance smiles": "CC1=C[C@@]2(C)C(=C(C)[C@H]3[C@@H]4C[C@H](C)C[C@H](C)[C@H]4[C@@H]4Oc5ccc(cc5)C[C@@]5(O)C=C(C(=O)N5)C(=O)[C@@H]2[C@@H]43)[C@H]1C", "subject of test": "NCI-H460", "pIC50": 4.89}
{"substance smiles": "CC1=C[C@@]2(C)C(=C(C)[C@H]3[C@@H]4C[C@H](C)C[C@H](C)[C@H]4[C@H]4Oc5ccc(cc5)C[C@]5(O)NC(=O)[C@]6(O[C@H]65)C(=O)[C@H]2[C@@H]43)[C@H]1C", "subject of test": "NCI-H460", "pIC50": 4.92}
{"substance smiles": "CC1=C[C@@]2(C)C(=C(C)[C@H]3[C@@H]4C[C@H](C)C[C@H](C)[C@H]4[C@H]4Oc5ccc(cc5)C[C@@H]5C(=O)NC(=O)[C@H]5C(=O)[C@@H]2[C@@H]43)[C@H]1C", "subject of test": "NCI-H460", "pIC50": 4.55}
{"substance smiles": "CC1=C[C@@]2(C)C(=C(C)[C@H]3[C@@H]4C[C@H](C)C[C@H](C)[C@H]4[C@H]4Oc5ccc(cc5)C[C@]5(O)NC(=O)[C@]6(O[C@H]65)C(=O)[C@@H]2[C@@H]43)[C@H]1C", "subject of test": "NCI-H460", "pIC50": 5.36}
{"substance smiles": "CO[C@@H]1/C2=C(\\O)[C@H]3[C@H]4[C@H](Oc5ccc(cc5)C[C@]1(O)NC2=O)[C@H]1[C@@H](C[C@H](C)C[C@@H]1C)[C@@H]4C(C)=C1[C@@H](C)C(C)=C[C@@]13C", "subject of test": "NCI-H460", "pIC50": 5.36}

* * *

Each record here notes measured IC50.
System: SNB-19
Assay: Cytotoxicity in human SNB19 cells assessed as reduction in cell viability incubated for 72 hrs by MTT assay
Format: functional, cell-based
Details: SNB-19, 72 h

{"compound": "CC1=C[C@@]2(C)C(=C(C)[C@H]3[C@@H]4C[C@H](C)C[C@H](C)[C@H]4[C@H]4Oc5ccc(cc5)C[C@]5(O)NC(=O)[C@]6(O[C@H]65)C(=O)[C@@H]2[C@@H]43)[C@H]1C", "relation qualifier": "=", "IC50 [µM]": 7.8}
{"compound": "CC1=C[C@@]2(C)C(=C(C)[C@H]3[C@@H]4C[C@H](C)C[C@H](C)[C@H]4[C@@H]4Oc5ccc(cc5)C[C@@]5(O)C=C(C(=O)N5)C(=O)[C@@H]2[C@@H]43)[C@H]1C", "relation qualifier": "=", "IC50 [µM]": 18}
{"compound": "CC1=C[C@@]2(C)C(=C(C)[C@H]3[C@@H]4C[C@H](C)C[C@H](C)[C@H]4[C@H]4Oc5ccc(cc5)C[C@]5(O)NC(=O)[C@]6(O[C@H]65)C(=O)[C@H]2[C@@H]43)[C@H]1C", "relation qualifier": "=", "IC50 [µM]": 29}
{"compound": "COc1cccc2c1C(=O)c1c(O)c3c(c(O)c1C2=O)C[C@@](O)(C(=O)CO)C[C@@H]3O[C@H]1C[C@H](N)[C@@H](O)[C@H](C)O1 [EPIRUBICIN]", "relation qualifier": "=", "IC50 [µM]": 2.3}
{"compound": "CC1=C[C@@]2(C)C(=C(C)[C@H]3[C@@H]4C[C@H](C)C[C@H](C)[C@H]4[C@H]4Oc5ccc(cc5)C[C@@H]5C(=O)NC(=O)[C@H]5C(=O)[C@@H]2[C@@H]43)[C@H]1C", "relation qualifier": ">", "IC50 [µM]": 50}
{"compound": "CO[C@@H]1/C2=C(\\O)[C@H]3[C@H]4[C@H](Oc5ccc(cc5)C[C@]1(O)NC2=O)[C@H]1[C@@H](C[C@H](C)C[C@@H]1C)[C@@H]4C(C)=C1[C@@H](C)C(C)=C[C@@]13C", "relation qualifier": "=", "IC50 [µM]": 6.8}
